Record set of IC50 for target or system Cyclin-dependent kinase 12 (Homo sapiens).
Quick reminder: number only, in nM, skip the unit.

> print(dat)
                                   compound  readout.unit  recorded.value
1  C=CC(=O)Nc1ccc(-c2ccc3nc(CC(=O)Nc4cc(C5CCC5)[nH]n4)cn3n2)cc1F            nM            15.5

Then this compound:
Task: Find the measured IC50: item CN(C)C/C=C/C(=O)Nc1ccc(C(=O)N2CCC[C@@H](Nc3ncc(Cl)c(-c4c[nH]c5ccccc45)n3)C2)cc1 , target or system Cyclin-dependent kinase 12 (Homo sapiens).
Output: 14.1

---

measurement_target: Cyclin-dependent kinase 13 (Homo sapiens, UniProt Q14004)
Sequence (Q14004 whole entry): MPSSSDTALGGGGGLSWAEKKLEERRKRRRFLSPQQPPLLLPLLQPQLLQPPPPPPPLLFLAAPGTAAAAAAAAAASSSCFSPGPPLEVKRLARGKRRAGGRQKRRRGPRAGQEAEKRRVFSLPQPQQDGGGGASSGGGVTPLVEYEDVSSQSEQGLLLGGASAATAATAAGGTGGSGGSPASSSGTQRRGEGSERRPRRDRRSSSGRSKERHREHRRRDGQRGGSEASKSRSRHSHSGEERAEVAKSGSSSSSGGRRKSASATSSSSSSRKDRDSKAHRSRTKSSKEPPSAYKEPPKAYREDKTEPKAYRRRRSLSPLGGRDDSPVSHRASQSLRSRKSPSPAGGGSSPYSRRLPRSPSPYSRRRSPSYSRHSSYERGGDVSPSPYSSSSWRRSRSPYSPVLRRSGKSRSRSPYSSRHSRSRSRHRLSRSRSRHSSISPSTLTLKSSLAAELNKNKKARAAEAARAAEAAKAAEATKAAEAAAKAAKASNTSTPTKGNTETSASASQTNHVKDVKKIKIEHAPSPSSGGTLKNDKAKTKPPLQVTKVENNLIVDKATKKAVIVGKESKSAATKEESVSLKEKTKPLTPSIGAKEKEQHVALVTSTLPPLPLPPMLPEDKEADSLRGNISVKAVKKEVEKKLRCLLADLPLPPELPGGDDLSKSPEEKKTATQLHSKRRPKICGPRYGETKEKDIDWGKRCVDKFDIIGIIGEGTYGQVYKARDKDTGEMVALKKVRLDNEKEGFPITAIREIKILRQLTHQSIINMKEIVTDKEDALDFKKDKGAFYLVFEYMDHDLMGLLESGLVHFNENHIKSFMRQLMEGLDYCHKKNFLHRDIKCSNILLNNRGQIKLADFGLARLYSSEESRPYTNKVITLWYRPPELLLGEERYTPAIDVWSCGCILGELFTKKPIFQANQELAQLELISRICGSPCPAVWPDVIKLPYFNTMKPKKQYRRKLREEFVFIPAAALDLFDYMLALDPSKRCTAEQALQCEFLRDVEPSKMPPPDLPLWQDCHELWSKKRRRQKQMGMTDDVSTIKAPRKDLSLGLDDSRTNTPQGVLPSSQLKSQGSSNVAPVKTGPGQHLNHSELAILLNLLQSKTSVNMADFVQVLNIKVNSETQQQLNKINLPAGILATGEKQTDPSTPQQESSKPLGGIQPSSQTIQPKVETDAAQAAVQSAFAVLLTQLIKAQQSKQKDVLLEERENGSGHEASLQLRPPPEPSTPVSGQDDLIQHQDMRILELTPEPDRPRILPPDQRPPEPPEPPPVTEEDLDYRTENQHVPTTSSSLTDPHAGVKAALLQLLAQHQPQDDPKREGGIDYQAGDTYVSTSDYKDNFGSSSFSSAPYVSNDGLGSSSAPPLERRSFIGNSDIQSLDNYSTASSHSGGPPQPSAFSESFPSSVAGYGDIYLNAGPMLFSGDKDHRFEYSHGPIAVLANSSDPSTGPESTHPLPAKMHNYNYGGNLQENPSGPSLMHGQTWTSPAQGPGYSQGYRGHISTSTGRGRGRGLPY
protocol: Inhibition of CDK13 (unknown origin) using GSRTPMY-NH2 as substrate in presence of ATP by ADP-glo assay
measured_parameter: IC50

Task: Given the entry C=CC(=O)Nc1ccc(-c2ccc3nc(CC(=O)Nc4cc(C5CCC5)[nH]n4)cn3n2)cc1F , report its measured IC50.
Output: 12.2 nM

---

measurement_target: Cyclin-dependent kinase 12 (Homo sapiens, UniProt Q9NYV4)
Sequence (Q9NYV4 whole entry): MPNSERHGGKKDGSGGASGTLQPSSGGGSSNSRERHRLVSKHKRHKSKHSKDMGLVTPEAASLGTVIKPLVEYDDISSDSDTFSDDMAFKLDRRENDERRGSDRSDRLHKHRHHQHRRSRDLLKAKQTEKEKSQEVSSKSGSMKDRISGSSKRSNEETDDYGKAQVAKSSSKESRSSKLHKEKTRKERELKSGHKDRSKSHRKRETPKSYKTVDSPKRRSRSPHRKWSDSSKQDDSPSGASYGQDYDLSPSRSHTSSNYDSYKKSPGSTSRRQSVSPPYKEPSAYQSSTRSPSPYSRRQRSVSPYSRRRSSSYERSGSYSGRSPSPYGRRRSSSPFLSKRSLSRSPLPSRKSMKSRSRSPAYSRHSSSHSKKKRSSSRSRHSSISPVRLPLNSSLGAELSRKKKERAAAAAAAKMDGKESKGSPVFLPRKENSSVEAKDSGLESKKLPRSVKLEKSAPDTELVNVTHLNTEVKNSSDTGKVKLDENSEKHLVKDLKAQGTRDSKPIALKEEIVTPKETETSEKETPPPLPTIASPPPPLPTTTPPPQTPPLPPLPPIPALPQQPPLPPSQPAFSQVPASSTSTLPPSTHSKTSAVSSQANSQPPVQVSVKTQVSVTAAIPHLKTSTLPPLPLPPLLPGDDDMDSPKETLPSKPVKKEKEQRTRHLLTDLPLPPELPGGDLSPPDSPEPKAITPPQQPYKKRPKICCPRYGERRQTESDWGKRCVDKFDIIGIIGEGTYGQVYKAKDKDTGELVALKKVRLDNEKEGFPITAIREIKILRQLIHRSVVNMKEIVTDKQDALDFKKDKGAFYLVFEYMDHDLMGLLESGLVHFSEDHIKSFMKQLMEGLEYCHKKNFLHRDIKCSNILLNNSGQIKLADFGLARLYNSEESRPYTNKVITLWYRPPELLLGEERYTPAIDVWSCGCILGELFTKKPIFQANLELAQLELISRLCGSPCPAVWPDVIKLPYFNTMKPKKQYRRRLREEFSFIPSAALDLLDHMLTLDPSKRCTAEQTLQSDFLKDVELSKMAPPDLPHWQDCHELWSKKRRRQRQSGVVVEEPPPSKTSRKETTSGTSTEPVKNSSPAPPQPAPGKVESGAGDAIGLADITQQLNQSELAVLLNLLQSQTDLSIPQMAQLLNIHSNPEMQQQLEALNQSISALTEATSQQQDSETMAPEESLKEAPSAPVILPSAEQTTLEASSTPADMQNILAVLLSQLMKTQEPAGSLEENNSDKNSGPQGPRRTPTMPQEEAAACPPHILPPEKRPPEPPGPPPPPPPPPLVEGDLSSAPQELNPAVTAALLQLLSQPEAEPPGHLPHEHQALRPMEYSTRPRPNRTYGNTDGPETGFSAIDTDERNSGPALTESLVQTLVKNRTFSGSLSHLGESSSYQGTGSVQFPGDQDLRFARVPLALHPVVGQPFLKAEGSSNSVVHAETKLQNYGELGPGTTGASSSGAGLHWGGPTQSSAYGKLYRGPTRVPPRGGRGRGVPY
protocol: Inhibition of CDK12 in human MDA-MB-231 cells pretreated with compound for 4 hrs followed by compound washout measured after 3 days
Format: cell-based
measured_parameter: EC50 (nM)
Quick reminder: number only, in nM, skip the unit.

Task: Given the entry C=CC(=O)Nc1ccc(-c2ccc3nc(CC(=O)Nc4cc(C5CCC5)[nH]n4)cn3n2)cc1F , report its measured EC50.
Output: 40

---

measurement_target: Cyclin-dependent kinase 12 (Homo sapiens, UniProt Q9NYV4)
protocol: Inhibition of CDK12 in human MDA-MB-231 cells incubated for 10 hrs
Assay type: cell-based
measured_parameter: EC50 (nM)
Quick reminder: number only, in nM, skip the unit.

Task: Given the entry C=CC(=O)Nc1ccc(-c2ccc3nc(CC(=O)Nc4cc(C5CCC5)[nH]n4)cn3n2)cc1F , report its measured EC50.
Output: 5.38
